ASSAYED_TARGET: Group 10 secretory phospholipase A2 (Homo sapiens)
Sequence (O15496 whole entry): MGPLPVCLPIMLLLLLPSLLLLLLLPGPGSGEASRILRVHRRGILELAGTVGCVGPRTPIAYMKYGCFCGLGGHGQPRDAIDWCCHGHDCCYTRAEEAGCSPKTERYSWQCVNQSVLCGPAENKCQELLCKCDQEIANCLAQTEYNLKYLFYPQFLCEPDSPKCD
PROTOCOL_NOTES: Inhibition of sPLA2-10 (unknown origin) using 1-palmitoyl-2-oleoyl-sn-glycero-3-phosphocholine as substrate pretreated for 20 mins followed by substrate addition and measured after 60 mins by NEFA based assay
pIC50: −log10 of the molar value.
TEST_READOUT: pIC50

COMPOUND | OBSERVED_VALUE
COC(Cc1cccc(-n2c(C(N)=O)cc3ccc(OC(F)(F)F)cc32)c1)C(=O)O (stereo in doubt) | 6.77
COC(Cc1cccc(-n2c(C(N)=O)cc3ccc(OC(F)(F)F)cc32)c1)C(=O)O (stereo in doubt; 11) | 7.41
CC(Cc1ccnc(-n2c(C(N)=O)cc3ccc(OC(F)(F)F)cc32)c1)C(=O)O (stereo in doubt; 13) | 6.85
CC(Cc1cccc(-n2c(C(N)=O)cc3ccc(OC(F)(F)F)cc32)n1)C(=O)O (stereo in doubt; 14) | 7.19
